These measurements were taken from PubChem BioAssay (NCI).

Each entry below lists one item and its recorded TGI value.
# Tested on: NCI-H460 lung
# assayMethodText: NCI tumour cell line growth inhibition, 48 h
measure: TGI

compound=Cc1c2n(c3ccccc13)S(=O)(=O)c1ccccc1-2 measure=TGI observedmeasurement="> 100 µM"
compound=N#COc1ccc(Oc2ccccc2)cc1 measure=TGI observedmeasurement="> 100 µM"
compound="CC1C2CCC3C(O)C2(CC(O)C2(O)C1CC(O)C2(C)C)CC3(C)O (stereo unspecified)" measure=TGI observedmeasurement="> 100 µM"
compound=CC(C)(C)c1cc2c(c(C(C)(C)C)c1O)CC(=O)O2 measure=TGI observedmeasurement="> 100 µM"
compound="C=CC(COC(=O)C(C)(C)OC(C)=O)c1ccc(OC(=O)C(C)C)c(OC)c1 (stereo unspecified)" measure=TGI observedmeasurement="7.78 µM"
compound="Cc1c(O)c(OC2OC(CO)C(O)C(O)C2O)cc2c1C=C[C@@H]1[C@@]2(C)C(=O)C[C@]2(C)[C@@H]([C@@](C)(O)C(O)/C=C/C(C)(C)O)[C@H](O)C[C@@]12C (stereo partly specified)" measure=TGI observedmeasurement="> 100 µM"

----------
# System: HCT-116 colon
# assayMethodText: NCI tumour cell line growth inhibition, 48 h
Each entry below lists one item and its recorded TGI value.
measure: TGI

compound="Cc1c(O)c(OC2OC(CO)C(O)C(O)C2O)cc2c1C=C[C@@H]1[C@@]2(C)C(=O)C[C@]2(C)[C@@H]([C@@](C)(O)C(O)/C=C/C(C)(C)O)[C@H](O)C[C@@]12C (stereo partly drawn)" observedmeasurement="> 100 µM"
compound=O=C(O)[C@@H]1OCCOCCO[C@@H](C(=O)O)[C@H](C(=O)O)OCCOCCO[C@H]1C(=O)O observedmeasurement="> 100 µM"
compound="C=CC(COC(=O)C(C)(C)OC(C)=O)c1ccc(OC(=O)C(C)C)c(OC)c1 (stereo not drawn)" observedmeasurement="> 48.9 µM"

----------
# System: HCT-116 colon
# assayMethodText: NCI tumour cell line growth inhibition, 48 h
Each entry below lists one item and its recorded TGI value.
measure: TGI (µM)

compound=CC(=O)c1c(SCCN2CCOCC2)n(-c2ccccc2)c(=S)n(-c2ccccc2)c1=O valueunit=µM valueprefix== observedmeasurement=30.5
compound=O/N=C(/C(Cl)=C(Cl)Cl)C(Cl)Cl valueunit=µM valueprefix== observedmeasurement=34.8
compound=COc1cccc(/C=C/c2nc3c(cnn3-c3ccccc3)c(=O)[nH]2)c1 valueunit=µM valueprefix=> observedmeasurement=100
compound=Cc1cc(S(=O)(=O)Nc2nnc3c4ccccc4cnn23)c(S)cc1Cl valueunit=µM valueprefix=> observedmeasurement=100
compound=CCC(=O)NI1OC(=O)c2ccccc21 valueunit=µM valueprefix=> observedmeasurement=100
compound="O=C1c2c(ccc3c2CCC3)CC1Cc1ccc2c(c1)CCC2 (configuration not stated)" valueunit=µM valueprefix== observedmeasurement=47.2
compound=COc1cccc(-c2nn(-c3ccccc3)cc2-c2ccnc(NCCCNC(=O)c3cccc(C(F)(F)F)c3)c2)c1 valueunit=µM valueprefix== observedmeasurement=16.1
compound=N#COc1ccc(Oc2ccccc2)cc1 valueunit=µM valueprefix=> observedmeasurement=100
compound=CCN(CC)Cc1ccccc1CC(=O)N1c2ccccc2C(=O)Nc2cccnc21 valueunit=µM valueprefix=> observedmeasurement=100
compound="COc1ccc(C2C(C#N)=C(S)N(C3OC(COC(C)=O)C(OC(C)=O)C(OC(C)=O)C3OC(C)=O)C(C)=C2C(C)=O)cc1 (configuration not stated)" valueunit=µM valueprefix=> observedmeasurement=100
compound=O=c1c2cc(Br)cc(Br)c2nc(CCCl)n1-c1ccc(O)c([N+](=O)[O-])c1 valueunit=µM valueprefix== observedmeasurement=28.1
compound=CNC(=O)c1cc(Oc2cccc3nc(NC(=O)Nc4cc(C(F)(F)F)cc(C(F)(F)F)c4)ccc23)ccn1 valueunit=µM valueprefix== observedmeasurement=41.8
compound=C=C1CCCC(C)(C)[C@H]1C/C=C1\CCOC1=O valueunit=µM valueprefix== observedmeasurement=25.8
compound="CCCCC(C)/C=C/C(=O)C1=C(O)/C(=C/C(=O)O)OC1=O (configuration not stated)" valueunit=µM valueprefix=> observedmeasurement=100
compound="CCC1C(C)C=NN1c1nc(N)nc(C(C#N)=Nc2ccc(N(C)C)cc2)n1 (configuration not stated)" valueunit=µM valueprefix=> observedmeasurement=50
compound="CCC/C=C\\C=C\\C1(NS(=O)(=O)c2ccc(C)cc2)CCC(C(C)(C)C)CC1 (configuration not stated)" valueunit=µM valueprefix== observedmeasurement=38.3
compound=COCCOC(=O)NCn1cc(-c2ccccc2)nn1 valueunit=µM valueprefix=> observedmeasurement=100
